Molecular target: KRAS G12C protein (Homo sapiens, UniProt P01116, G12C)
Sequence (P01116 1-188 isoform P01116-2 G12C): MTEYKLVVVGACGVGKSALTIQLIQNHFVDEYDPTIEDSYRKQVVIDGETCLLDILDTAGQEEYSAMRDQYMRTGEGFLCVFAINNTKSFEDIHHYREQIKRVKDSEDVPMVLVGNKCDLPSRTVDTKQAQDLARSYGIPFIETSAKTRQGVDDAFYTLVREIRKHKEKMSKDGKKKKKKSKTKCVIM
Test: Nucleotide exchange assay, Method III (TR-FRET, association of KRAS G12C with Raf-RBD, SOS1-mediated exchange)
Assay type: biochemical
Conditions: overnight (18 hr) incubation with GDP-bound KRAS G12C
Experimental: Method III. Inhibition of SOS1-mediated exchange of GDP for GTP on the KRAS G12C protein was measured in a biochemical assay that monitors association of KRAS G12C protein with the Ras-binding domain of Raf (Raf-RBD), where the association is coupled to exchange of GDP to GTP on the KRAS G12C protein. The assay was performed at WuXi AppTec (Shanghai, China). […]
pIC50: −log10 of the molar value.
// values below are reported pIC50

MOLECULE	pIC50
C=CC(=O)N1CCN(c2c(S(C)(=O)=O)c(=O)n(-c3c(C)ccnc3C(C)C)c3c(F)c(-c4c(O)cccc4F)c(Cl)cc23)CC1 (single isomer, unassigned) [176 (Isomer D)]	≥ 6.52
C=CC(=O)N1CCN(c2c(C(=O)NC)c(=O)n(-c3c(C)ccnc3C(C)C)c3nc(-c4c(O)cccc4F)c(F)cc23)[C@@H](C)C1 (single isomer, unassigned) [76 (Isomer B)]	≤ 5.52
C=CC(=O)N1CCN(c2c(S(C)(=O)=O)c(=O)n(-c3c(C)ccnc3C(C)C)c3c(F)c(-c4cccc5sc(N)nc45)c(Cl)cc23)CC1 (single isomer, unassigned) [252 (Isomer B)]	≥ 6.52
C=CC(=O)N1CCN(c2c(S(C)(=O)=O)c(=O)n(-c3c(C)ccnc3C(C)C)c3nc(-c4c(O)cccc4F)c(F)cc23)C[C@@H]1CC#N (single isomer, unassigned) [135 (Isomer B)]	5.52 to 6.52
C=CC(=O)N1CCC(n2c(=O)c(=O)n(-c3c(C)ccnc3C(C)C)c3nc(-c4c(O)cccc4F)c(F)cc32)C[C@@H]1C (single isomer, unassigned) [4 (Isomer B)]	≤ 5.52
C=CC(=O)N1CCN(c2c(S(C)(=O)=O)c(=O)n(-c3c(C)ccnc3C(C)C)c3c(F)c(-c4c(C)ccc5[nH]ncc45)c(Cl)cc23)CC1 (single isomer, unassigned) [187 (Isomer B)]	≥ 6.52
C=CC(=O)N1CCN(c2c(C(=O)NCC)c(=O)n(-c3c(C)ccnc3C(C)C)c3nc(-c4c(O)cccc4F)c(F)cc23)CC1 (single isomer, unassigned) [293 (Isomer A)]	≥ 6.52
C=CC(=O)N1CCN(c2c(S(C)(=O)=O)c(=O)n(-c3c(C)ccnc3C(C)C)c3nc(-c4c(O)cccc4F)c(F)cc23)C[C@H]1C (single isomer, unassigned) [143 (Isomer B)]	≥ 6.52
C=CC(=O)N1CCN(c2c(S(C)(=O)=O)c(=O)n(-c3c(C)ccnc3C(C)C)c3c(F)c(-c4c(C)ccc5[nH]ncc45)c(Cl)cc23)CC1 (single isomer, unassigned) [187 (Isomer A)]	5.52 to 6.52
C=CC(=O)N1CCN(c2c(S(C)(=O)=O)c(=O)n(-c3c(C)ccnc3C(C)C)c3c(F)c(-c4c(C)ccc5[nH]ncc45)c(Cl)cc23)CC1 (single isomer, unassigned) [187 (Isomer C)]	≥ 6.52
C=CC(=O)N1CCN(c2c(C(=O)NC)c(=O)n(-c3c(C)ccnc3C(C)C)c3nc(-c4cccc5sc(N)nc45)c(F)cc23)CC1 (single isomer, unassigned) [254 (Isomer B)]	≥ 6.52
C=CC(=O)N1CCN(c2c(S(C)(=O)=O)c(=O)n(-c3c(C)ccnc3C(C)C)c3nc(-c4cccc5sc(N)nc45)c(F)cc23)CC1 (single isomer, unassigned) [250 (Isomer A)]	≥ 6.52
C=CC(=O)N1CCN(c2c(S(C)(=O)=O)c(=O)n(-c3c(C)ccnc3C(C)C)c3nc(-c4c(O)cccc4F)c(F)cc23)CC1 (single isomer, unassigned) [123 (Isomer B)]	5.52 to 6.52
C=CC(=O)N1CCC(c2c(C(=O)NC)c(=O)n(-c3c(C)ccnc3C(C)C)c3nc(-c4c(O)cccc4F)c(F)cc23)CC1 (single isomer, unassigned) [68 (Isomer B)]	≤ 5.52
C=CC(=O)N1CCN(c2c(S(C)(=O)=O)c(=O)n(-c3c(C)ccnc3C(C)C)c3nc(-c4c(O)cccc4F)c(F)cc23)[C@@H](C)C1 (single isomer, unassigned) [131 (Isomer B)]	≤ 5.52

Reference source: patent US20230026856A1
